Tested on: 885512-296-R-J2-PDC complex spheroid growth, % test/control;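 further: spheroids exposed to compounds for seven days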
Test: Anticancer human tumor 885512-296-R-J2-PDC patient-derived breast carcinoma cell line growth inhibition [Asc]
Conditions: curve of first compound; second compound 3.16 µM
pIC50: −log10 of the molar value.
Item-by-item account of pIC50

MOLECULE	pIC50
Cn1ncnc1[C@H]1c2n[nH]c(=O)c3cc(F)cc(c23)N[C@@H]1c1ccc(F)cc1 + Cc1c(S(C)(=O)=O)c(-c2cc(F)cc(N3CCN(c4ccc(NS(=O)(=O)c5ccc(NC(CCN6CCC(C(=O)OCCCP(=O)(O)O)CC6)CSc6ccccc6)c(S(=O)(=O)C(F)(F)F)c5)cc4)CC3)c2)c(-c2ccc(Cl)cc2)n1C(C)C	7.67
CCN1CCN(Cc2ccc(Nc3ncc(F)c(-c4cc(F)c5nc(C)n(C(C)C)c5c4)n3)nc2)CC1 + Cc1c(S(C)(=O)=O)c(-c2cc(F)cc(N3CCN(c4ccc(NS(=O)(=O)c5ccc(NC(CCN6CCC(C(=O)OCCCP(=O)(O)O)CC6)CSc6ccccc6)c(S(=O)(=O)C(F)(F)F)c5)cc4)CC3)c2)c(-c2ccc(Cl)cc2)n1C(C)C	< 6.00
NC1CCC(NC2CC2c2ccccc2)CC1 (stereo not drawn) + Cc1c(S(C)(=O)=O)c(-c2cc(F)cc(N3CCN(c4ccc(NS(=O)(=O)c5ccc(NC(CCN6CCC(C(=O)OCCCP(=O)(O)O)CC6)CSc6ccccc6)c(S(=O)(=O)C(F)(F)F)c5)cc4)CC3)c2)c(-c2ccc(Cl)cc2)n1C(C)C	< 7.00

Reference source for all entries: PubChem BioAssay AID1963447
